- Measured On: CCR2 (Homo sapiens, UniProt P41597)
- Construct: Membranes were prepared from THP-1 cells; endogenous in cells; host or cells: THP-1 cells (membrane preparation)
- Sequence (P41597 1-360 isoform P41597-2): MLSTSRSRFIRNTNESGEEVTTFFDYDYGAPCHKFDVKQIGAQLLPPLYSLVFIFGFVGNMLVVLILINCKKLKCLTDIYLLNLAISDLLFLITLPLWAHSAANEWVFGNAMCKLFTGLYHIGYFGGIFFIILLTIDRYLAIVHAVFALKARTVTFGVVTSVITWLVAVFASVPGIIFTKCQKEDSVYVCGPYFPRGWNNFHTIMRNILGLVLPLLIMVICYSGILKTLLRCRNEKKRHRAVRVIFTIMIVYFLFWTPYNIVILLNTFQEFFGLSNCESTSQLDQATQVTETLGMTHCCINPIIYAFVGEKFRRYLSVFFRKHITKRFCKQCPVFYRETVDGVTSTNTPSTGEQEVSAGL
- Assay Text: CCR2 receptor membrane binding assay ([125I]MCP-1, THP-1 cell membranes, SPA beads)
- Condition Details: @ 10 μM test compound; THP-1 membranes; read-out: CCR2 % ctrl @ 10 μM
Measured Property: remaining activity at 10 µM (%)

Compound | Measured On | remaining activity at 10 µM [%]
Cc1c(NCc2ccc(C(C)(C)C)cc2)ncnc1C(=O)N1CCC(N2CCOC(C)C2)CC1 (stereo not shown) | CCR2 (Homo sapiens, UniProt P41597) | 7

P. CNC(=O)[C@@H]1CCN(C2CCN(C(=O)c3ncnc(NCc4ccc(Cl)c(F)c4)c3C)CC2)C1
Q. Cc1c(NCc2ccc(C(C)(C)C)cc2)ncnc1C(=O)N1CCCC(N2CCOCC2)CC1 (stereo not shown)
// max by remaining activity at 10 µM over [ P , Q ] When you have decided, please share the label of that item.
Q

* * *

- Measured On: CCR2 (Homo sapiens, UniProt P41597)
- Construct: Membranes were prepared from THP-1 cells; endogenous in cells; host or cells: THP-1 cells (membrane preparation)
- Assay Text: CCR2 receptor membrane binding assay ([125I]MCP-1, THP-1 cell membranes, SPA beads)
- Condition Details: @ 10 μM test compound; THP-1 membranes; read-out: CCR2 % ctrl @ 10 μM
Measured Property: remaining activity at 10 µM (%)

Compound | Measured Property | Reading
CNS(=O)(=O)C1CCN(C2CCN(C(=O)c3ncnc(NCc4ccc(Cl)c(Cl)c4)c3C)CC2)CC1 | remaining activity at 10 µM | 11
Cc1c(NCCc2ccc(Cl)c(Cl)c2)ncnc1C(=O)N1CCC(N2CCC(F)CC2)CC1 | remaining activity at 10 µM | 16
Cc1c(NCc2ccc(Cl)c(F)c2)ncnc1C(=O)N1CCC(N2CCCCC2)CC1 | remaining activity at 10 µM | 23
Cc1c(NCc2ccc(C(C)(C)C)cc2)ncnc1C(=O)N1CCC(N2CC(N(C)S(C)(=O)=O)C2)CC1 | remaining activity at 10 µM | 31

a. Cc1c(NCc2ccc(C(C)(C)C)cc2)ncnc1C(=O)N1CCC(N(C)C2CCOCC2)CC1 [Example 275a]
b. CO[C@H]1CN(C2CCN(C(=O)c3ncnc(NCc4ccc(Cl)c(Cl)c4)c3C)CC2)CC[C@H]1NS(C)(=O)=O
Please let me know which one, a or b , has a lower measured remaining activity at 10 µM value. When you have decided, please share the label of that item.
a
(a: 0%, b: 53%)

* * *

- Measured On: CCR2 (Homo sapiens, UniProt P41597)
- Construct: Membranes were prepared from THP-1 cells; endogenous in cells
- Assay Text: CCR2 receptor membrane binding assay ([125I]MCP-1, THP-1 cell membranes, SPA beads)
- Condition Details: dissociation constant hKi; [125I]MCP-1 binding to THP-1 membranes
pKi: −log10 of the molar value.
Measured Property: pKi

Below, each entry is followed by its recorded pKi result.
Compound | Measured On | Reading
Cc1c(NC[C@@H]2C[C@H]2c2ccccc2)ncnc1C(=O)N1CCC(N2CCC(N(C)S(C)(=O)=O)CC2)CC1 | CCR2 (Homo sapiens, UniProt P41597) | 7.36
CO[C@@H]1CN(C2CCN(C(=O)c3ncnc(NCc4ccc(Cl)c(Cl)c4)c3C)CC2)CC[C@H]1NS(C)(=O)=O | CCR2 (Homo sapiens, UniProt P41597) | 6.28
Cc1c(NCc2cccc(-c3ccccc3)c2)cccc1C(=O)N1CCC(N2CCC(O)CC2)CC1 | CCR2 (Homo sapiens, UniProt P41597) | 5.35
Cc1nc(NCc2ccc(C(C)(C)C)cc2)c(C)c(C(=O)N2CCC(N3CCC(N(C)S(C)(=O)=O)CC3)CC2)n1 | CCR2 (Homo sapiens, UniProt P41597) | 7.37

1. Cc1c(NCc2ccc(C(C)(C)C)cc2)ncnc1C(=O)N1CCCC(N2CCCC2)CC1 (centres unmarked)
2. CO[C@@H]1CN(C2CCN(C(=O)c3ncnc(NCc4ccc(Cl)c(Cl)c4)c3C)CC2)CC[C@H]1N(C)S(C)(=O)=O
3. Cc1nc(NCc2ccc(Cl)c(Cl)c2)c(C)c(C(=O)N2CCC(N3CCC(N(C)S(C)(=O)=O)CC3)CC2)n1
4. Cc1c(NCCc2ccc(Cl)c(Cl)c2)ncnc1C(=O)N1CCC(N2CCOC(c3ccccc3)C2)CC1 (centres unmarked)
5. Cc1nc(NC2CCCC(c3ccccc3)C2)c(C)c(C(=O)N2CCC(N3CCC(NS(C)(=O)=O)CC3)CC2)n1 (centres unmarked)
List from greatest to least pKi. Output the labels ranked as instructed.
3, 4, 2, 5, 1
(3: 7.37, 4: 6.98, 2: 6.48, 5: 6.11, 1: 5.81)

I. COC1CCN(C2CCN(C(=O)c3ncnc(NCc4ccc(C(C)C)cc4)c3C)CC2)CC1
II. Cc1c(NCCc2ccc(C(C)(C)C)cc2)ncnc1C(=O)N1CCC(N2CCC(O)CC2)CC1
III. Cc1c(NCc2ccc(Cl)c(Cl)c2)ncnc1C(=O)N1CCC(N2CCC(N(C)S(C)(=O)=O)CC2)CC1
Form: Sort by [pKi] Order [ ascending ] Output the labels ranked as instructed.
II, I, III

I. CCC(C)NC(=O)C1CCN(C2CCN(C(=O)c3ncnc(NCc4ccc(C(C)(C)C)cc4)c3C)CC2)CC1 (centres unmarked)
II. Cc1c(NC[C@H]2CC[C@H](c3cccc(C(F)(F)F)c3)O2)ncnc1C(=O)N1CCC(N2CCC(N(C)S(C)(=O)=O)CC2)CC1 [Example 159ha]
Please let me know which one, I or II , has a lower measured pKi value. When you have decided, please share the label of that item.
I

* * *

- Measured On: CCR2 (Homo sapiens, UniProt P41597)
- Construct: Membranes were prepared from THP-1 cells; endogenous in cells
- Assay Text: CCR2 receptor membrane binding assay ([125I]MCP-1, THP-1 cell membranes, SPA beads)
- Condition Details: dissociation constant hKi; [125I]MCP-1 binding to THP-1 membranes
pKi: −log10 of the molar value.
Measured Property: pKi

Compound | Measured On | pKi
Cc1c(NCCc2ccc(Cl)c(Cl)c2)ncnc1C(=O)N1CCC(N2CCC[C@H](O)C2)CC1 | CCR2 (Homo sapiens, UniProt P41597) | 5.95
Cc1c(C(=O)N2CCC(N3CCC(N(C)S(C)(=O)=O)CC3)CC2)ncnc1-c1ccc(C(C)(C)C)cc1 | CCR2 (Homo sapiens, UniProt P41597) | 5.78
COCCN(C)C1CCN(C(=O)c2ncnc(NCc3ccc(Cl)c(Cl)c3)c2C)CC1 | CCR2 (Homo sapiens, UniProt P41597) | 5.44
CCS(=O)(=O)N(C)C1CCN(C2CCN(C(=O)c3ncnc(NCc4ccc(Cl)c(F)c4)c3C)CC2)CC1 | CCR2 (Homo sapiens, UniProt P41597) | 7.44
CCc1c(NCCc2ccc(Cl)c(Cl)c2)ncnc1C(=O)N1CCC(N2CCC(O)CC2)CC1 | CCR2 (Homo sapiens, UniProt P41597) | 5.84
CCS(=O)(=O)N(C)C1CCN(C2CCN(C(=O)c3ncnc(NCC4CCN(c5ccccc5)CC4)c3C)CC2)CC1 | CCR2 (Homo sapiens, UniProt P41597) | 6.76
Cc1c(NCCc2ccc(Cl)c(Cl)c2)ncnc1C(=O)N1CCC(N2CCC[C@H](C(N)=O)C2)CC1 | CCR2 (Homo sapiens, UniProt P41597) | 6.36
Cc1c(NCCc2ccc(C(F)(F)F)cc2)ncnc1C(=O)N1CCC(N2CCC(O)CC2)CC1 | CCR2 (Homo sapiens, UniProt P41597) | 6.18
Cc1c(NCc2ccc(C(C)(C)C)cc2)ncnc1C(=O)N1CCC(N2CCc3ncc(C(F)(F)F)cc3C2)CC1 [Example 228gg] | CCR2 (Homo sapiens, UniProt P41597) | 5.99
Cc1c(Oc2ccc(Cl)cc2)ncnc1C(=O)N1CCC(N2CCC(N(C)S(C)(=O)=O)CC2)CC1 | CCR2 (Homo sapiens, UniProt P41597) | 5.80

A. Cc1c(NCc2ccc(Cl)c(Cl)c2)ncnc1C(=O)N1CCC(N2CC[C@@H](NS(C)(=O)=O)C2)CC1
B. CCN(C1CCN(C2CCN(C(=O)c3ncnc(NCc4ccc(Cl)c(Cl)c4)c3C)CC2)CC1)S(C)(=O)=O
C. CNC(=O)C1CCN(C2CCN(C(=O)c3ncnc(NCC4CCCC(c5ccc(Cl)cc5)C4)c3C)CC2)CC1 (stereo not drawn) [Example 159ea]
Form: Sort by [pKi] Order [ ascending ] Output the labels ranked as instructed.
A, B, C

I. Cc1c(NCc2ccc(C(C)(C)C)cc2)ncnc1C(=O)N1CCC(N2CCC(N(C)S(C)(=O)=O)CC2)CC1
II. COc1nc(NCc2ccc(C(C)(C)C)cc2)c(C)c(C(=O)N2CCC(N3CCC(N(C)S(C)(=O)=O)CC3)CC2)n1 [Example 159b]
// max by pKi over [ I , II ] When you have decided, please share the label of that item.
II
